pKi values, listed per item
- Measured on: human histamine H3 receptor (Homo sapiens)
- Construct: expressed in transfected cells; membranes prepared from cell pellets
- Test name: [3H]-N-methylhistamine binding to membranes of histamine H3 receptor-expressing SK-N-MC cells
- Condition info: 0.8 nM [3H]-N-methylhistamine, 45 min at 25° C., SK-N-MC cell membranes; Ki=(IC50)/(1+([L]/(Kd)); read-out: Ki
pKi: −log10 of the molar value.

{"columns": ["Compound", "pKi"],
 "data": [
  ["CCN(CC)CCOc1ccc(CN2CCCCC2)cc1", 6.85],
  ["Clc1ccc(NCc2ccc(OCCCN3CCCCC3)cc2)cc1", 7.64],
  ["COc1ccc(CCN(C)Cc2ccc(OCCCN3CCCCC3)cc2)cc1OC", 8.80],
  ["c1ccc(NCc2ccccc2OCCCN2CCCCC2)nc1", 7.00],
  ["c1ccc(NCc2ccc(OCCCN3CCCCC3)cc2)cc1", 8.15],
  ["CN(Cc1ccccc1)C1CCN(Cc2ccc(OCCCN3CCCCC3)cc2)CC1", 9.30],
  ["c1cc(OCCCN2CCCCC2)ccc1CNC1CCCCC1", 9.00],
  ["c1ccc(NCc2ccc(OCCCN3CCCC3)cc2)nc1", 8.35],
  ["c1ccc(NCc2cccc(OCCCN3CCCCC3)c2)nc1", 8.10],
  ["c1ccc2c(c1)CCN(Cc1ccc(OCCN3CCCCC3)cc1)C2", 8.40],
  ["c1ccc(CCCC2CCN(Cc3ccc(OCCCN4CCCCC4)cc3)CC2)cc1", 8.72],
  ["c1cncc(C2CCCCN2Cc2ccc(OCCCN3CCCCC3)cc2)c1 (centres unmarked)", 8.70],
  ["NC(=O)C1CCN(Cc2ccc(OCCCN3CCCCC3)cc2)CC1", 9.00],
  ["C(=C1CCN(Cc2cccc(OCCCN3CCCCC3)c2)CC1)c1ccccc1", 8.74],
  ["CN1CCC(N(C)Cc2ccc(OCCCN3CCCCC3)cc2)CC1", 8.96],
  ["CN(CCc1ccccc1)Cc1ccc(OCCCN2CCCCC2)cc1", 8.77],
  ["c1ccc(N2CCN(Cc3ccc(OCCCN4CCCCC4)cc3)CC2)cc1", 9.00],
  ["C(=C1CCN(Cc2ccccc2OCCCN2CCCCC2)CC1)c1ccccc1", 6.42],
  ["c1cc(OCCCN2CCCCC2)ccc1CN1CCOCC1", 9.15],
  ["CN1CCCC1c1ccc(OCCCN2CCCCC2)cc1 (centres unmarked)", 9.40]
]}

----------
- Measured on: human histamine H3 receptor (Homo sapiens)
- Construct: expressed in transfected cells; membranes prepared from cell pellets
- Test name: [3H]-N-methylhistamine binding to membranes of histamine H3 receptor-expressing SK-N-MC cells
- Condition info: 0.8 nM [3H]-N-methylhistamine, 45 min at 25° C., SK-N-MC cell membranes; Ki=(IC50)/(1+([L]/(Kd)); read-out: Ki
- Description: Thus in the present invention receptor binding was determined using the human histamine H3 receptor (See Lovenberg et al Mol. Pharmacol. 1999, 1107). […] Conventional binding assays for example are determined using rat synaptosomes (Garbarg et al J. Pharmacol. Exp. Ther. 1992, 263, 304), rat cortical membranes (West et al Mol. Pharmacol. 1990, 610), and guinea pig brain (Korte et al Biochem. Biophys. Res. Commun. 1990, 978). […]
Ki values, listed per item

{"columns": ["Smiles input", "Measured on", "Ki / nM"],
 "data": [
  ["CN(C)Cc1ccc(OCCCN2CCCCC2)cc1", "human histamine H3 receptor (Homo sapiens)", 2],
  ["c1ccc(CC2CCN(Cc3ccc(OCCCN4CCCCC4)cc3)CC2)cc1", "human histamine H3 receptor (Homo sapiens)", 1.3],
  ["CN(CCc1ccccc1)C1CCN(Cc2ccc(OCCCN3CCCCC3)cc2)CC1", "human histamine H3 receptor (Homo sapiens)", 1.1]
]}

----------
Ki values, listed per item
- Measured on: human histamine H3 receptor (Homo sapiens, UniProt Q9Y5N1)
- Construct: expressed in transfected cells; membranes prepared from cell pellets
- Sequence (Q9Y5N1 whole entry): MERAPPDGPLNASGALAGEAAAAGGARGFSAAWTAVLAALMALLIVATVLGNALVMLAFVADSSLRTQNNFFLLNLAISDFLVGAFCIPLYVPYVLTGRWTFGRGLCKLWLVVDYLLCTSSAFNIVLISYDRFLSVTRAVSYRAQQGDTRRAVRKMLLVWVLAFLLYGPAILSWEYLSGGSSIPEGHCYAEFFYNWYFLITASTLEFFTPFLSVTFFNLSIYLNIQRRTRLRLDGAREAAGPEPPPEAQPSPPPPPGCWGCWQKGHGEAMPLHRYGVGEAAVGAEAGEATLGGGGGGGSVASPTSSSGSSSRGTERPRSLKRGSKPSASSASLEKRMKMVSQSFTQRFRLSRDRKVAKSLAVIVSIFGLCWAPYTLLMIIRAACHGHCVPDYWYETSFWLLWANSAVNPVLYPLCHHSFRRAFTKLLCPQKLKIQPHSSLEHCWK
- Test name: [3H]-N-methylhistamine binding to membranes of histamine H3 receptor-expressing SK-N-MC cells
- Condition info: 0.8 nM [3H]-N-methylhistamine, 45 min at 25° C., SK-N-MC cell membranes; Ki=(IC50)/(1+([L]/(Kd)); read-out: Ki

{"columns": ["Compound", "Measured on", "Value units", "Ki"],
 "data": [
  ["c1ccc(CN2CCN(c3ccc(OCCCN4CCCC4)cc3)CC2)cc1 [Example 24]", "human histamine H3 receptor (Homo sapiens, UniProt Q9Y5N1)", "nM", 1.3],
  ["c1cc(OCCCN2CCCCC2)ccc1OCCCN1CCCCC1 [Example 31]", "human histamine H3 receptor (Homo sapiens, UniProt Q9Y5N1)", "nM", 0.5],
  ["c1cc(OCCN2CCCCC2)ccc1OCCCN1CCCCC1 [Example 30]", "human histamine H3 receptor (Homo sapiens, UniProt Q9Y5N1)", "nM", 0.4],
  ["CC(C)N1CCN(Cc2ccc(OCCCN3CCCCC3)cc2)CC1 [Example 88]", "human histamine H3 receptor (Homo sapiens, UniProt Q9Y5N1)", "nM", 2]
]}
